System: VEEV
Experiment: microbe, parasite or virus in culture
Format: cell-based
Details: Venezuelan equine encephalitis virus, NHDF, read-out: VEEV EC90
EC90 overview
READOUT_NAME: EC90 (µM)

>>> df
                                   compound  test_system  readout_name  relation_operator  test_value
0  O=C(COc1nc(=O)[nH]c2ccccc12)NC12CC3CC(CC(C3)C1)C2         VEEV          EC90                  =         3.2
1  CC(C)Oc1cc(OCC(=O)NC23CC4CC(CC(C4)C2)C3)nc(=O)[nH]1         VEEV          EC90                  =        0.98
2  O=C(COc1cc[nH]c(=O)n1)NC1C2CC3CC(C2)CC1C3 (centres unmarked)         VEEV          EC90                  =        0.08
3  O=C(COc1cc(Cl)[nH]c(=O)n1)NC12CC3CC(CC(C3)C1)C2         VEEV          EC90                  =        5.65
4  O=C(COc1nc(=O)[nH]c(OCCO)c1F)NC12CC3CC(CC(C3)C1)C2         VEEV          EC90                  >          10

====

log10 of EC90 overview
Test system: VEEV
Test: microbe, parasite or virus in culture
Format: cell-based
Details: Venezuelan equine encephalitis virus, NHDF, read-out: VEEV EC90
READOUT_NAME: log10 of EC90 (log10 of the value in nM)

In [3]: df
Out[3]:
                            structure_smiles  test_value
 0  Cc1cc(OCC(=O)NC23CC4CC(CC(C4)C2)C3)nc(=O)[nH]1        3.04
 1  Cc1[nH]c(=O)nc(OCC(=O)NC23CC4CC(CC(C4)C2)C3)c1C        3.47
 2  O=C(COc1cc[nH]c(=O)n1)NC12CC3CC(CC(C3)C1)C2        3.04
 3  CC(C)(C)COc1cc(OCC(=O)NC23CC4CC(CC(C4)C2)C3)nc(=O)[nH]1        2.00
 4  O=C(COc1nc(=O)[nH]c2c1CCCC2)NC12CC3CC(CC(C3)C1)C2        3.16
 5  O=C(COc1nc(=O)[nH]c(N2C3CCC2COC3)c1F)NC12CC3CC(CC(C3)C1)C2        3.70
 6  O=C(CSc1cc[nH]c(=O)n1)NC12CC3CC(CC(C3)C1)C2        2.49
 7  COC(=O)c1c(SCC(=O)NC23CC4CC(CC(C4)C2)C3)nc(=O)[nH]c1C        3.28
 8  N#Cc1ccc(-c2cc(OCC(=O)NC34CC5CC(CC(C5)C3)C4)nc(=O)[nH]2)cc1        3.99
 9  O=C(COc1cc(OC2CC2)[nH]c(=O)n1)NC12CC3CC(CC(C3)C1)C2        2.81
10  O=C(COc1cc(C2CCC2)[nH]c(=O)n1)NC12CC3CC(CC(C3)C1)C2        2.00

====

EC90 overview
Tested on: VEEV
Experiment: microbe, parasite or virus in culture
Assay type: cell-based
Conditions: Venezuelan equine encephalitis virus, NHDF, read-out: VEEV EC90
READOUT_NAME: EC90 (µM)

>>> df
                           structure_smiles  test_system  relation_operator  test_value
0  O=C(COc1cc(-c2ccccc2)[nH]c(=O)n1)NC12CC3CC(CC(C3)C1)C2         VEEV                  =        2.02
1  O=C(COc1nc(=O)[nH]cc1F)NC12CC3CC(CC(C3)C1)C2         VEEV                  =         0.1
2  CCOc1cc(OCC(=O)NC23CC4CC(CC(C4)C2)C3)nc(=O)[nH]1         VEEV                  >          10
3  O=C(COc1nc(=O)[nH]c(N2CC(F)(F)C2)c1F)NC12CC3CC(CC(C3)C1)C2         VEEV                  =         1.5
4  COc1[nH]c(=O)nc(OCC(=O)NC23CC4CC(CC(C4)C2)C3)c1F         VEEV                  >          10
5  O=C(COc1cc(C2CC(F)(F)C2)[nH]c(=O)n1)NC12CC3CC(CC(C3)C1)C2         VEEV                  =        0.03
6  O=C(COc1cc(C2CCCC2)[nH]c(=O)n1)NC12CC3CC(CC(C3)C1)C2         VEEV                  =         4.5
7  O=C(COc1nc(=O)[nH]c2c1CCC2)NC12CC3CC(CC(C3)C1)C2         VEEV                  =           1
8  O=C(COc1cc(C(F)(F)F)[nH]c(=O)n1)NC12CC3CC(CC(C3)C1)C2         VEEV                  >          10

====

EC90 overview
System: VEEV
Assay: microbe, parasite or virus in culture
Format: cell-based
Settings: Venezuelan equine encephalitis virus, NHDF, read-out: VEEV EC90
READOUT_NAME: EC90

>>> print(df.to_string())
                                   compound  readout_name  test_value
0  COc1cc(OCC(=O)NC23CC4CC(CC(C4)C2)C3)nc(=O)[nH]1          EC90     > 10 µM
1  CCC(C)Oc1cc(OCC(=O)NC23CC4CC(CC(C4)C2)C3)nc(=O)[nH]1 (stereo not drawn)          EC90     > 10 µM
2  O=C(COc1cc(Oc2ccc(F)cc2)[nH]c(=O)n1)NC12CC3CC(CC(C3)C1)C2          EC90     > 10 µM
3  COCCOc1cc(OCC(=O)NC23CC4CC(CC(C4)C2)C3)nc(=O)[nH]1          EC90     > 10 µM
4  O=C(COc1cc(OC2CC(F)(F)C2)[nH]c(=O)n1)NC12CC3CC(CC(C3)C1)C2          EC90     > 10 µM
5  O=C(COc1nc(=O)[nH]cc1Cl)NC12CC3CC(CC(C3)C1)C2          EC90     > 10 µM
